target.or.system: T1, hnRNPLL RRM1 V136D (thunder) (Mus musculus, UniProt Q921F4 109-213, V136D)
T1 sequence: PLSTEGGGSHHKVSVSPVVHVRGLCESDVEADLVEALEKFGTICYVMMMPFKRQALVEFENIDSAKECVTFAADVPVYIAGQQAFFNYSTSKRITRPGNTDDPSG
procedure.details: ITC
metric.name: Kd (µM)
Give bare numbers, in µM.

What does the record list as Kd for CCUUACCUGCACGCA (ssRNA) [Ptprc exon 6 ARS 15-mer WT] ?
3.1
